Assay system: T1, MPP6, Q9NZW5
T1 sequence (Q9NZW5 125-219, limits assumed, looked up): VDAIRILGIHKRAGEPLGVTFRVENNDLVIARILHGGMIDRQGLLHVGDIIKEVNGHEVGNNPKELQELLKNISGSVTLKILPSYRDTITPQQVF
Run description: holdup assay
Set-up: key: below the threshold = too weak to quantify, mostly under pKd 3.1 to 4
Measurement setup: plain residues with an end cap or a label only (N-terminal biotin on a linker: ahx)

- Binder: "SDSSGQEYSL [KCTD3, Q9Y597]"
  pKd: 3.83
- Binder: "TVICWPGSLV [LNX2, Q8N448]"
  pKd: "below the threshold"
- Binder: "LSDPSVSTVV [GRIN1, Q05586;Q05586-2]"
  pKd: "below the threshold"
- Binder: "HNAFLSVTTV [PDZRN4, Q6ZMN7]"
  pKd: 3.5
- Binder: "ESLLLGPSNF [SHROOM4, Q9ULL8]"
  pKd: "below the threshold"
- Binder: "GYDWGPATDL [TJP3, O95049]"
  pKd: "below the threshold"
